# test description: Biodistribution of the 99mTc(N) heterocomplexes in rats (organ uptake, heart accumulation, heart/lung and heart/liver ratios)
# Type: in vivo, female Sprague-Dawley rats
# condition label: 2 min post injection
assay metric: Biodistribution in rats: Brain (% ID/g)
Return type: number; implicit unit % ID/g.

Provide one value: measured Biodistribution in rats: Brain of CCOCCN(CCOCC)C1=[S][99Tc+]2(#[N])([S]1)[P](CCCOC)(CCCOC)CCN(CCOC)CC[P]2(CCCOC)CCCOC [[^99mTc(N) (PNP3) (DBODC)]^+] 0.03

Provide one value: measured Biodistribution in rats: Brain of COCCC[P]1(CCCOC)CCN(CCOC)CC[P](CCCOC)(CCCOC)[99Tc+]12(#[N])[S]C(N(CCOC)CCOC)=[S]2 [[^99mTc(N) (PNP3) (DPODC)]^+] 0.02

meta.source: patent US7445765B2
